- assayedTarget: GlcNAc(b1-3)Gal
- assayDetails: glycan array binding signal (z-score within array); higher = stronger binding
- conditionLabel: glycan notation: IUPAC condensed, linker removed
Many of the other results were omitted from the sample, so the strongest signals are more common in it than they were.

binder	glycan array binding signal (z-score)
LgFlo1 (Saccharomyces pastorianus), B3IUA8 (protein) SGSTQACLPVGSRKNGMNVNFYKYSLQDSTTYSDPQYMAYKYSDTKKLGSVSGQTHLSIYYGPNTAFWNTASWSSDLFGFYTTPTNVTVEMTGYFLPPQTGSYTFKFATVDDSAILSVGGSIAFECCAQEQPPITSTDFTINGIKPWDAATPTDIKGSTYMYAGYYYPIKIVYSNAKALARLPVSVVLPDGTEVNDDFEGYVYSFDDDLSQSNCTIPDPSKHTTS	-0.087
AMA (Arum maculatun) (protein) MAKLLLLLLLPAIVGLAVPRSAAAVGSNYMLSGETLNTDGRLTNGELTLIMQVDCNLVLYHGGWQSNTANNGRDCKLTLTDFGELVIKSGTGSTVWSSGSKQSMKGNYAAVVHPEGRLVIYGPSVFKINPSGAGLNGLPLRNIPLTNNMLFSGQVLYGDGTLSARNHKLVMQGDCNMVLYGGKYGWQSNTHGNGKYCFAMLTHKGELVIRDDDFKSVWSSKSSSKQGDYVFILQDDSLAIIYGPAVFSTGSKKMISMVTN	-0.211
Gal 3 (Canis lupus) (protein) MADSFSLNDALSGSGNPNPQGWPGPWGNQPAGAGGYPGASYPGAYPGQAPPGGYPGQAPPGGYPGQAPPGGYPGQAPPGGYPGQAPPGGYPGQAPPGTYPGPTAPAYPGPTAPGTQPGQPSGPGAYPPPGQPSAPGAYPAAGPFGIPAGPLTVPYDLPLPGGVKPRMLITILGTVRPSANRLALDFKRGNDVAFHFNPRFNEDNKRVIVCNTKLDNIWGKEERQAAFPFESGKPFKIQVLVESDHFKVAVNDAHLLQYNHRMKNLPEISKLGISGDIDLTSASYAMI	-0.264
